Values were extracted from patent US9745328B2.

- measured_target: human FLAP (Homo sapiens (Human), UniProt P20292)
- Sequence (P20292 whole entry): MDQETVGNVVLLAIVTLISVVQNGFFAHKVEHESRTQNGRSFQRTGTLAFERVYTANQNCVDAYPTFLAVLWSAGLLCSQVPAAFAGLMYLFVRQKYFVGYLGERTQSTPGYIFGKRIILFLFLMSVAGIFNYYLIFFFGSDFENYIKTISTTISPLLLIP
- procedure_summary: FLAP binding assay (HTRF format)
- test_parameters: Table 6 (additional runs), human FLAP wild type
Structures can show the parent of a compound that is named as a salt.
Provide the reported pKi of each item.
Remember, pKi is on a log scale: it is -log10 of the molar concentration.

Problem: May I ask what pKi has been recorded for Nc1cnc(-c2ccc(-c3ccccc3S(=O)(=O)N[C@H]3CCCNC3=O)cc2F)cn1 [Example 108] ?
Solution: 8.02

Problem: Now consider CC(C)(C)S(=O)(=O)c1ccccc1-c1ccc(-c2cnc(N)cn2)c(F)c1 [Example 194] and answer again.
Solution: 6.81

Problem: Now consider CNC1CCN(S(=O)(=O)c2ccccc2-c2ccc(-c3cnc(N)cn3)c(F)c2)CC1 [Example 72] and answer again.
Solution: 6.92

Problem: Now consider Nc1cnc(-c2ccc(-c3ccccc3Sc3nccc(N)n3)cc2F)cn1 [Example 216, hydrochloride] and answer again.
Solution: 8.66

Problem: Now consider Nc1cnc(-c2ccc(-c3ccccc3S(=O)(=O)N3CCNCC3)cc2F)cn1 [Example 46] and answer again.
Solution: 7.21

Problem: Now consider CCC(C)(C)NS(=O)(=O)c1ccccc1-c1ccc(-c2cnc(N)cn2)c(F)c1 [Example 12] and answer again.
Solution: 8.72

Problem: Now consider Nc1cnc(-c2ccc(-c3ccccc3S(=O)(=O)N[C@H](CO)c3ccccc3)cc2F)cn1 [Example 81] and answer again.
Solution: 8.19

Problem: Now consider Nc1cnc(-c2ccc(-c3ccccc3S(=O)(=O)N[C@H]3CC[C@@H](N)CC3)cc2F)cn1 [Example 134] and answer again.
Solution: 8.89

Problem: Now consider O=S(=O)(c1ccccc1-c1ccc(-c2cnc3[nH]ccc3n2)c(F)c1)N1CCCCC1 [Example 374] and answer again.
Solution: 8.92

Problem: Now consider Nc1cnc(-c2ccc(-c3ccccc3S(=O)(=O)NC[C@H](O)c3ccccc3)cc2F)cn1 [Example 117] and answer again.
Solution: 9.15

Problem: Now consider Nc1cnc(-c2ccc(-c3ccccc3NS(=O)(=O)C(F)(F)F)cc2F)cn1 [Example 41] and answer again.
Solution: 7.97

Problem: Now consider Nc1cnc(-c2ccc(-c3ccccc3S(=O)(=O)N[C@H]3CCCC[C@@H]3CO)cc2F)cn1 (racemic) [Example 121] and answer again.
Solution: 9.30

Problem: Now consider CCN(CC)S(=O)(=O)c1ccccc1-c1ccc(-c2cnc3[nH]ccc3n2)c(F)c1 [Example 373] and answer again.
Solution: 9.10

Problem: Now consider Nc1ccc(-c2ccc(-c3ccccc3S(=O)(=O)NC3CCCCC3)cc2F)cn1 [Example 346] and answer again.
Solution: 8.35

Problem: Now consider Nc1cnc(-c2ccc(-c3ccccc3Sc3ncccn3)cc2F)cn1 [Example 213, hydrochloride] and answer again.
Solution: 8.62

Problem: Now consider CC(C)(CCO)NS(=O)(=O)c1ccccc1-c1ccc(-c2cnc(N)cn2)c(F)c1 [Example 102] and answer again.
Solution: 9.40
